Hello, the source for this data is patent US20240190986A1, in case you need it.

- target.system: T1, segment III of MSLN expressed on HEK293T cells (UniProt Q13421 487-598, limits assumed)
- T1 construct: domain: segment III of MSLN; also called HEK293T MSLN-III cells; MSLN segment III protein overexpressing cell line
- T1 sequence (Q13421 495-606 limits assumed): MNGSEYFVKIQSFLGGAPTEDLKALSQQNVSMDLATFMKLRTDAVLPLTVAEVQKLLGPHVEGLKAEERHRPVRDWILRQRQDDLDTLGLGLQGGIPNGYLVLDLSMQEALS
- assay.notes: flow cytometry on HEK293T cells expressing MSLN segment III, anti-human IgG PE secondary, fitted curve
endpoint.label: EC50

# EC50 lookup, item M156-IgG4 (antibody, V domains shown, also called M156 heavy chain antibody) VH: QVQLVESGGGLVQAGGSLRLSCAVSGISFEYYAIGWFRQAPGKEREAVSCTTSGTTSGGGVTDYADSLKGRFTISRDVAKNTVYLQMNNLTPEDTAVYYCAADIHCRGYVLFVPSDFGNWGQGTQVTVSS
4.15 nM

# EC50 lookup, item M129-IgG4 (antibody, V domains shown, also called M129 heavy chain antibody) VH: QVQLVESGGGSAQAGGSLILSCVASANLFTIDALGWYRQAPGPKRELVAAISSGGNKYYADAVKGRFTISRDTLTKTMWLQMNNLKPEDTAMYYCAAEDYGLGQRSWGMGTQVTVSS
6.24 nM

# EC50 lookup, item M003-IgG4 (antibody, V domains shown, also called M003 heavy chain antibody) VH: QVQLVESGGGLVQAGGSLRLSCTASGNIFSINAMGWYRQPPGKEWERELVATISSTNSDNTYYKESVKGRFTISTNTAKNTWYLQMNSLKPEDTAMYYCAAENFDRKDRYWAQGTQVTVSS
4.95 nM

# EC50 lookup, item M344-IgG4 (antibody, V domains shown, also called M344 heavy chain antibody) VH: QVQLVESGGGLVQSGGSLRLSCVASGSAFSFDAMGWYRQFSATRRERQLVVATSRDGRTYYADSVKGRFTATRDNSKNSLYLEMNSLKPEDTAIYYCAAGDDPKNYSWGQGTQVTVSS
3.39 nM

# EC50 lookup, item M044-IgG4 (antibody, V domains shown, also called M044 heavy chain antibody) VH: QVQVVESGGGFVQAGGSLRLSCAASTPIISIAYMGWYRQISEKERQLVATINSGGKTYYADSVKGRFTISRDNAKNTLYLQMNMLKPEDTGMYYCAASNKDYNDYDPDWGQGTQVTVSS
10.6 nM

# EC50 lookup, item M119-IgG4 (antibody, V domains shown, also called M119 heavy chain antibody) VH: EVQLVESGGGLVQPGGSLRLSCVASGSDLSFDAMGWYRQFSATVRERQLVVATSRDGRIYYGDSVKGRFTASRDNLKNSVDLEMNNLKPEDTAIYYCAAGDDPKNYDWGPGTQVTVSS
3.91 nM
